system: A498 renal; experiment: NCI-60 one-dose screen, 48 h; settings: 10 µM unless noted
About 83,000 compounds went through this panel and 20% of them were active in at least one assay; those are over-represented in the sample as a whole. The source made the active and inactive calls. The calls were made as follows: active = growth percent below 10; inactive = the rest.
// allowed return values: label 1 (active), label 0 (inactive)

- COc1ccc(-c2cc3cnc4ccccc4c3oc2=O)cc1: label 0
- Cc1oc2c(Cc3ccc(NC(=O)c4ccc(Cl)cc4)cc3)ncnc2c1C(=O)NO: label 0

Note: attention shifts to another entry.
query: Can you look up the reported call for `CCCc1cc(C(N)=S)ccn1` for me?
result: label 0

---

test system: HCT-116 colon; assay: NCI-60 one-dose screen, 48 h (100 = growth as untreated, 0 = no growth, -100 = all killed); details: 10 µM unless noted
About 83,000 compounds went through this panel and 20% of them were active in at least one assay; those are over-represented in the sample as a whole.
Could you please report measured growth for the items listed next?
Give bare numbers, in %.

Record excerpt, results attached:
* COc1ccc2c(O)c(/C=C3\N=Nc4nc(C)ccc43)oc2c1CC1CCNCC1 | 35.3
* O=C1c2cccc3cccc(c23)C(=O)N1N1C(=O)c2cccc3c(N4CCNCC4)ccc(c23)C1=O | 58.1
* CC/C(=C(/c1ccc(Cl)cc1)c1ccc(OCCN2CCOCC2)cc1)c1ccccc1 | 77.6
* COc1ccc(-c2[nH]c3ccccc3c2-c2ccc(OC)cc2)cc1 | 24.4
* Cc1ccccc1SSc1ccccc1C | 55

Parameters: items (list). Returns: growth for each item.
1. CCOc1ccccc1NC(=O)c1cc2ccccc2cc1O
2. Cc1nc2cccc(NCCCCC(=O)NO)c2c(=O)n1-c1ccccc1
3. CN1CCN(c2ccc(/C=C/C(=O)c3ccc(O)cc3)cc2)CC1
4. CCOC(=O)C(=Cc1ccc(C#N)cc1)C(=O)OCC
5. COc1ccc(C/C(C)=C(/c2ccc(OCCN3CCCC3)cc2)c2ccc(OC(=O)NCc3ccccc3)cc2)cc1
6. O=C1C(Nc2ccc(Cl)cc2)=C(I)C(=O)c2ncccc21

result:
1. 31.9
2. 27.3
3. 99.2
4. -13.1
5. 39.6
6. -57.3
